# TEST SYSTEM: T1, biotinylated CRH (human and mouse, not fully specified; biotinylated, position not stated)
# T1 construct: also called Biotin-CRH; biotin-labeled CRH
# T1 peptide: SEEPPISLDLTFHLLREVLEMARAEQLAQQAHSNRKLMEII
# PROCEDURE TEXT: Octet BLI, biotinylated CRH on SA sensor
Items are presented alongside their recorded kon.
Return type: number; implicit unit M⁻¹ s⁻¹.

Take a look at these entries with their results.
{"BINDER": "PR006149 (antibody, human IgG1, kappa, V domains shown, PTM-removal variant of PR004290) VH: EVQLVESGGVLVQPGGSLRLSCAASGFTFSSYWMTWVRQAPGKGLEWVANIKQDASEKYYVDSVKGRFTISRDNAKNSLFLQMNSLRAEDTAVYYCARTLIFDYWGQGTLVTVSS VL: DIVMTQSPLSLPVTPGEPASISCRSSQSLLHSTGYSSLEWYLQKPGQSPQLLIYLGSNRASGVPDRFSGSGSGTDFTLKISRVEAEDVGIYYCMQTLQTPITFGQGTRLEIKR", "QUANTITY NAME": "kon", "UNIT LABEL": "M⁻¹ s⁻¹", "QUANTITATIVE READOUT": 487000}
{"BINDER": "PR006746 (antibody, human IgG1, kappa, V domains shown, PTM-removal variant of PR006669) VH: EVQLVESGGGLVQPGGSLRLSCAASGFTFSDNWMSWVRQAPGKGLEWVANIKQDSSENYYVDSVKGRFTISRDNAKNSLYLQMNSLRAEDTAVYYCSRGLALWGWGQGTLVTVSS VL: DIVMTHSPLSLPVTPGDPASISCRSSQSLLHSTGYNYLDWYLQKPGQSPQLLIYLGSNRASGVPDRFSGSGSGTDFTLKFIRVEAEDVGVYYCMQALQTPYTFGQGTKLEIKR", "QUANTITY NAME": "kon", "UNIT LABEL": "M⁻¹ s⁻¹", "QUANTITATIVE READOUT": "1.16e+06"}

Kindly consider the entry below.
Lab note: PR006144 (antibody, human IgG1, kappa, V domains shown, PTM-removal variant of PR004290) VH: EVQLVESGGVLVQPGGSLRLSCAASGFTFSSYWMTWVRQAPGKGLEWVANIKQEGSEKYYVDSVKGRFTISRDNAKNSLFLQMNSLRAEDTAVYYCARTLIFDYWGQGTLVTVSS VL: DIVMTQSPLSLPVTPGEPASISCRSSQSLLHSTGYNPLEWYLQKPGQSPQLLIYLGSNRASGVPDRFSGSGSGTDFTLKISRVEAEDVGIYYCMQTLQTPITFGQGTRLEIKR gave kon of 499000

Values compiled from patent US20260042834A1.
